Tested on: SK-MEL-28 melanoma
Experiment: NCI tumour cell line growth inhibition, 48 h
OBSERVABLE: TGI

- MOLECULE: "CC(=N/NC(=S)N1CCCCCC1)/C(C)=N\\NC(=S)N1CCCCCC1"
  OBSERVED RESULT: "3.56 µM"
- MOLECULE: "O=C(O)C1C2C=CC(O2)C1C(=O)NCc1cccnc1 (stereo not given)"
  OBSERVED RESULT: "> 100 µM"
- MOLECULE: "COc1ccccc1-n1cnc(N)c1C(=O)c1cc(OC)c(OC)c(OC)c1"
  OBSERVED RESULT: "> 100 µM"
- MOLECULE: "Oc1ccc(NC(=S)Nc2ccccc2)cc1"
  OBSERVED RESULT: "> 100 µM"
- MOLECULE: "C=C1C(=O)OC2C1CCC(=C)C1CC(O)C(=C)C12 (stereo not given)"
  OBSERVED RESULT: "32 µM"
- MOLECULE: "Cc1ccccc1NC(=O)CC1C(=O)Nc2ccccc2S1=O (stereo not given)"
  OBSERVED RESULT: "> 100 µM"
- MOLECULE: "Nc1nc(N)c2c(n1)NC(c1sc(Cl)nc1Cl)CC(c1ccccc1)=N2 (stereo not given)"
  OBSERVED RESULT: "17.8 µM"
- MOLECULE: "COc1ccc(-c2nn(-c3cccc(Cl)c3)cc2/C=C2\\NC(=S)N(c3ccc(Cl)cc3)C2=O)cc1"
  OBSERVED RESULT: "7.97 µM"
- MOLECULE: "CCn1cnc(C[C@H](NC(=O)[C@H](CCCCNC(=O)Nc2cc(C(F)(F)F)cc(C(F)(F)F)c2)NC(=O)Nc2cc(C(F)(F)F)cc(C(F)(F)F)c2)C(=O)OC)c1"
  OBSERVED RESULT: "> 10 µM"
- MOLECULE: "CN(C)CCCNC(=O)N/N=C/c1ccc(O)cc1"
  OBSERVED RESULT: "> 100 µM"

----------
System: DLD-1 colon
Test: NCI tumour cell line growth inhibition, 48 h
Measured TGI by item

- MOLECULE: "COc1ccc(CN(CCN(C)C)c2ccccn2)cc1 (tested in a mixture with another compound)"
  MEASUREMENT TARGET: "DLD-1 colon"
  CENSORING SIGN: ">"
  TGI [µM]: 100
- MOLECULE: "CC12Nc3ccccc3C1=C(c1ccccc1)CC1C(=O)OC(=O)C12 (stereo not given)"
  MEASUREMENT TARGET: "DLD-1 colon"
  CENSORING SIGN: ">"
  TGI [µM]: 100
- MOLECULE: "CC1=C(C(=O)Nc2cccc(Cl)c2)C(c2ccccc2O)C(C(=O)Nc2cccc(Cl)c2)=C(C)N1"
  MEASUREMENT TARGET: "DLD-1 colon"
  CENSORING SIGN: "="
  TGI [µM]: 33
- MOLECULE: "O=C1OC(CC(=O)c2ccc(F)cc2)C(Cl)=C1Cl (stereo not given)"
  MEASUREMENT TARGET: "DLD-1 colon"
  CENSORING SIGN: "="
  TGI [µM]: 47.4
- MOLECULE: "Cc1ccc2nc(NC(=O)C(=O)C(C(=O)c3ccc4ccccc4c3)C3OC(=O)c4ccccc43)sc2c1 (stereo not given)"
  MEASUREMENT TARGET: "DLD-1 colon"
  CENSORING SIGN: "="
  TGI [µM]: 32.7
